# assay_protocol: Absorption and fluorescence maxima of the dye in water
# Format: physicochemical
# assay_setup: H2O
Where a name gives a salt, the structure may show the parent alone.
readout: λMax.fluorescence (H2 O)
Write the figure, then the unit, nothing else.

Provide measured λMax.fluorescence (H2 O) value, entry: CC1(C)C(=CC=CC=CC=CC2=[N+](CCCCS(=O)(=O)[O-])c3ccc(C(=O)N[C@H]4C(O)O[C@H](CO)[C@@H](O)[C@@H]4OS(=O)(=O)O)cc3C2(C)C)N(CCCCS(=O)(=O)O)c2ccc(C(=O)N[C@H]3C(O)O[C@H](CO)[C@@H](O)[C@@H]3OS(=O)(=O)O)cc21 (stereo partly drawn) [Example 3, trisodium salt]
790 nm

Provide measured λMax.fluorescence (H2 O) value, entry: CC1(C)C(=CC=CC=CC=CC2=[N+](CCCCS(=O)(=O)[O-])c3ccc(C(=O)N[C@H]4C(O)O[C@H](CO)[C@@H](O)[C@@H]4OS(=O)(=O)O)cc3C2(C)C)N(CCCCS(=O)(=O)O)c2ccccc21 (stereo partly drawn) [Example 2, disodium salt]
779 nm

Provide measured λMax.fluorescence (H2 O) value, entry: CC1(C)C(=CC=CC=CC=CC2=[N+](CCCCS(=O)(=O)[O-])c3ccc(C(=O)N[C@H]4C(O)O[C@H](CO)[C@H](O)[C@@H]4O[C@@H]4O[C@H](C(=O)O)[C@@H](O)[C@H](O)[C@H]4O)cc3C2(C)C)N(CCCCS(=O)(=O)[O-])c2ccccc21.[Na+] (stereo partly drawn)
779 nm

====

# assay_protocol: Absorption and fluorescence maxima of the dye in water
# Format: physicochemical
# assay_setup: H2O
Where a name gives a salt, the structure may show the parent alone.
For each entry below, report its λMax.fluorescence (H2 O) value.

Provide measured λMax.fluorescence (H2 O) value, entry: CC1(C)C(=CC=CC=CC=CC2=[N+](CCCCS(=O)(=O)[O-])c3ccc(C(=O)NCC(COS(=O)(=O)O)OS(=O)(=O)O)cc3C2(C)C)N(CCCCS(=O)(=O)O)c2ccccc21 (centres unmarked) [Example 1, trisodium salt]
780 nm

Provide measured λMax.fluorescence (H2 O) value, entry: CC1(C)C(=CC=CC=CC=CC2=[N+](CCCCS(=O)(=O)[O-])c3ccc(C(=O)NC4OC(CO)C(OC5OC(CO)C(OC6OC(CO)C(O)C(O)C6O)C(O)C5O)C(O)C4O)cc3C2(C)C)N(CCCCS(=O)(=O)O)c2ccccc21 (centres unmarked)
779 nm
